assay: in vitro; details: monkey, microsomes, The amplified intrinsic clearance Cl int
MEASURED ATTRIBUTE: CLint scaled at 1 µM (mL/min/kg)
Give a bare numeral; the unit mL/min/kg is implied.

Q: Would you mind telling me what CLint scaled at 1 µM value was observed for O=c1ccc2ccc(O)cc2o1 [7-hydroxycoumarin] ?
A: 1210

====

assay: in vitro; details: dog
MEASURED ATTRIBUTE: CLint scaled at 1 µM (mL/min/kg)
Hi! Could you send only the number? It should be in mL/min/kg, unit omitted.

Q: What measured CLint scaled at 1 µM goes with O=c1ccc2ccc(O)cc2o1 [7-hydroxycoumarin] ?
A: 30.4

====

experiment: in vitro; details: human
MEASURED ATTRIBUTE: CLint scaled at 1 µM (L/h/kg)
Your answer should be a plain number; it is taken to be in L/h/kg.

Q: # CLint scaled at 1 µM lookup, item O=c1ccc2ccc(O)cc2o1 [7-hydroxycoumarin]
A: 1.21

====

experiment: Hepatic microsomal metabolic stability; conditions: dog, microsomes
MEASURED ATTRIBUTE: CLint scaled at 1 µM (mL/min/kg)
Write the number in mL/min/kg without appending the unit.

Q: Which CLint scaled at 1 µM is listed for Cc1c(-c2ccc(N3CCc4cccc(C(=O)Nc5nc6ccccc6s5)c4C3)nc2C(=O)OCc2ccc(O[C@@H]3O[C@H](CO)[C@H](O)[C@H](O)[C@H]3O)c([N+](=O)[O-])c2)cnn1CC12CC3CC(CC(C3)C1)C2 ?
A: 21.7

====

test: Hepatic microsomal metabolic stability; details: monkey, microsomes, The amplified intrinsic clearance Cl int
MEASURED ATTRIBUTE: CLint scaled at 1 µM (L/h/kg)
Give the value in L/h/kg but do not write L/h/kg after it.

Q: Which CLint scaled at 1 µM value is on record for Cc1c(-c2ccc(N3CCc4cccc(C(=O)Nc5nc6ccccc6s5)c4C3)nc2C(=O)OCc2ccc(O[C@@H]3O[C@H](CO)[C@H](O)[C@H](O)[C@H]3O)c([N+](=O)[O-])c2)cnn1CC12CC3CC(CC(C3)C1)C2 [A13bGa1] ?
A: 588

====

assay: in vitro; conditions: human, microsomes
MEASURED ATTRIBUTE: microsomal CLint at 1 µM (µL/min/mg)
Reply numerically in µL/min/mg, unit not repeated.

Q: What value of measured microsomal CLint at 1 µM is listed for O=c1ccc2ccc(O)cc2o1 [7-hydroxycoumarin] ?
A: 617

====

experiment: Hepatic microsomal metabolic stability
MEASURED ATTRIBUTE: CLint scaled (mL/min/kg)
// units = mL/min/kg; emit number, no label

Q: Entry under review: Cc1c(-c2ccc(N3CCc4cccc(C(=O)Nc5nc6ccccc6s5)c4C3)nc2C(=O)OCc2ccc(O[C@@H]3O[C@H](CO)[C@H](O)[C@H](O)[C@H]3O)c([N+](=O)[O-])c2)cnn1CC12CC3CC(CC(C3)C1)C2 . Reported CLint scaled?
A: 17.9

====

experiment: in vitro; settings: rat, microsomes
MEASURED ATTRIBUTE: CLint scaled at 1 µM (mL/min/kg)
State just the number; it will be interpreted in mL/min/kg.

Q: What does the record list as CLint scaled at 1 µM for O=c1ccc2ccc(O)cc2o1 [7-hydroxycoumarin] ?
A: 1010

====

assay: in vitro; details: rat, microsomes
MEASURED ATTRIBUTE: half-life at 1 µM (min)
Please respond with the number in min and leave the unit unwritten.

Q: Tell me the measured half-life at 1 µM of O=c1ccc2ccc(O)cc2o1 [7-hydroxycoumarin] , please.
A: 2.47

Where these numbers come from: patent EP4574175A1
